Origin of measurements: patent US20200399238A1

Tested on: C. albicans (ATCC strain 90028)
protocol: Antifungal microdilution broth assay (PrestoBlue), C. albicans
Assay type: cell-based, Candida albicans
condition-summary: Candida albicans, ATCC90028, Table 5; read-out: IC50 C. albicans
Protocol: Sigma-Aldrich) was used as the base medium for testing. […] solution of morpholinepropanesulfonic acid (MOPS; Sigma-Aldrich) was added to the RPMI to a final concentration of 0.165 M for buffering (RPMI-MOPS). […] PrestoBlue was added to a final concentration of 10% in each well and fluorescence read at 560 nm excitation and 590 nm emission, per manufacturer instructions, using a SpectraMax M2e spectrophotometer (Molecular Devices, LLC, Sunnyvale, Calif.). […]
property: IC50 (µM)
Respond with the bare value in µM.

Determine from records and report IC50 for COc1ccc(/C=C2\Oc3c(ccc(O)c3O)C2=O)cc1O
16
